system: Hepatotoxicity; assay: Human drug-induced liver injury (DILI) modelling dataset from Ekins et al
measurement label: Hepatotoxicity

Previously resolved entries follow.
>  <molecule>
CCC1(c2ccccc2)CCC(=O)NC1=O (stereo not given) [GLUTETHIMIDE]

>  <target or test system>
Hepatotoxicity

>  <Hepatotoxicity>
DILI positive (test set)

$$$$
>  <molecule>
ClCCCl

>  <target or test system>
Hepatotoxicity

>  <Hepatotoxicity>
DILI positive (test set)

$$$$
>  <molecule>
COc1cc2ncnc(Nc3ccc(F)c(Cl)c3)c2cc1OCCCN1CCOCC1

>  <target or test system>
Hepatotoxicity

>  <Hepatotoxicity>
DILI positive (test set)

$$$$
>  <molecule>
CC(C)(C)NCC(O)c1cc(O)cc(O)c1.O=S(=O)(O)O (stereo not given)

>  <target or test system>
Hepatotoxicity

>  <Hepatotoxicity>
DILI positive (test set)

$$$$
>  <molecule>
N[C@@H](Cc1cc(I)c(Oc2ccc(O)c(I)c2)c(I)c1)C(=O)O

>  <target or test system>
Hepatotoxicity

>  <Hepatotoxicity>
DILI negative (test set)

$$$$

Ask | Entry `CCCCC1=NC2(CCCC2)C(=O)N1Cc1ccc(-c2ccccc2-c2nnn[nH]2)cc1` : reported Hepatotoxicity = ?
Reply | DILI negative (test set)

Ask | What do we get for `Cc1nnc(NS(=O)(=O)c2ccc(N)cc2)s1` ?
Reply | DILI positive (test set)

Ask | What do we get for `C[n+]1ccc(-c2cc[n+](C)cc2)cc1` ?
Reply | DILI positive (test set)
